molecular target: human Claudin18.2 (CLDN18.2) (human, UniProt P56856 1-261); test: cell-based or functional assay
assay metric: Max inhibition % (%)
One number for each entry, in %.

Observe how each entry below is paired with its result.
binder	Max inhibition % (%)
chAb20 (antibody, V domains shown) VH: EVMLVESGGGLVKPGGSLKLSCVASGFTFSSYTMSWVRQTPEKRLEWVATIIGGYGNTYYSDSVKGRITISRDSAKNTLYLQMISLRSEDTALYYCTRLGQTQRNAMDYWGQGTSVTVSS VL: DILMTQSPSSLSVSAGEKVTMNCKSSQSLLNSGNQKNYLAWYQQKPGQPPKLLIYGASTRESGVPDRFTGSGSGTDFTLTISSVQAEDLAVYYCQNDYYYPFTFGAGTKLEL	92.8
chAb08 (antibody, V domains shown) VH: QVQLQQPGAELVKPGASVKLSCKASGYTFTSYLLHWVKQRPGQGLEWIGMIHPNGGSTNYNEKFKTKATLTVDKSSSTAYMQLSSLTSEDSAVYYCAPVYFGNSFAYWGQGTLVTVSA VL: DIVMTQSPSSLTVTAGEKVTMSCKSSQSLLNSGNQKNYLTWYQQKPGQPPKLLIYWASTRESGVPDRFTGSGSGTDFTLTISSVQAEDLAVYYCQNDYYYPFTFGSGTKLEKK	92.5
chAb17 (antibody, V domains shown) VH: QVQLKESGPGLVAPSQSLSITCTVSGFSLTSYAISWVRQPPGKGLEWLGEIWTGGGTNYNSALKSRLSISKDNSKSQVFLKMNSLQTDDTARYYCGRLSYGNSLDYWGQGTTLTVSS VL: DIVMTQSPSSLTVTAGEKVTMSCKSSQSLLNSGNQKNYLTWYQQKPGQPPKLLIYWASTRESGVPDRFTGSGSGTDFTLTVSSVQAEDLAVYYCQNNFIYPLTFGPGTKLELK	92.4

Give Max inhibition % for all binders that follow.
1. chAb31 (antibody, V domains shown) VH: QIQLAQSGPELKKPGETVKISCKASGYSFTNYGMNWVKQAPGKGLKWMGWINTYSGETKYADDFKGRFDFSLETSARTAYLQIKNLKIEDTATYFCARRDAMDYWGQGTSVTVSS VL: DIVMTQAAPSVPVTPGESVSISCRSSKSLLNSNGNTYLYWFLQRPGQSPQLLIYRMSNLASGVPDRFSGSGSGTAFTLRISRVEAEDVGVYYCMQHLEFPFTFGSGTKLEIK
2. chAb11 (antibody, V domains shown) VH: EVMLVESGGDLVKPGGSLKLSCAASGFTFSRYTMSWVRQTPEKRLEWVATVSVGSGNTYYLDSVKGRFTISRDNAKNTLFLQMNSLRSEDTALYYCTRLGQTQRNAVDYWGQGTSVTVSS VL: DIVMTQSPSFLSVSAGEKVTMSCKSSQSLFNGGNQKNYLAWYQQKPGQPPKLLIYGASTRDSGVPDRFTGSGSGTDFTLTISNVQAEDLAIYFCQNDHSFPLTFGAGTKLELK

Ans.
[91.7, 93.5]

Data origin, for the record: patent US20230095569A1
